Target or system Aurora2 (Homo sapiens); recorded quantity IC50.
property: IC50

[[record]]
compound = "O=C(NOCc1ccccc1)c1cc(-c2[nH]ncc2-c2cc(Cl)cc(Cl)c2)c[nH]1"
result = "5 to 10 µM"

[[record]]
compound = "O=C(NCc1cccnc1)c1cc(-c2[nH]ncc2-c2cccc(Cl)c2F)c[nH]1"
result = "< 5 µM"

[[record]]
compound = "O=C(NCC1CCCO1)c1cc(-c2[nH]ncc2-c2cccc(Cl)c2F)c[nH]1 (stereo not drawn)"
result = "5 to 10 µM"


###

In this section we review reported Ki values for a set of compounds.
Target: ERK2 (Homo sapiens, UniProt P28482)
Sequence (P28482 whole entry): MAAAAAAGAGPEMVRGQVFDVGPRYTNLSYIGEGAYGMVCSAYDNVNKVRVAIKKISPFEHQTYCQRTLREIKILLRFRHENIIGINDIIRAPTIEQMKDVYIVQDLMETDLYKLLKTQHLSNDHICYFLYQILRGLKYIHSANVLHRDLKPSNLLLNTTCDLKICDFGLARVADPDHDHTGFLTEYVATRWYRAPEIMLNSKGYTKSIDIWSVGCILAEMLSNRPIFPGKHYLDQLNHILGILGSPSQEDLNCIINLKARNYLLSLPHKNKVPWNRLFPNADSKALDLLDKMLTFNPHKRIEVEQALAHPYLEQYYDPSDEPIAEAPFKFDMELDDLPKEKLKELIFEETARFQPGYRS
Experiment: ERK2 inhibition, spectrophotometric coupled-enzyme assay
Type: biochemical
Settings: activated ERK2 10 nM, 65 μM ATP, 30° C., pH 7.5; read-out: ERK2 Inhibitory Activity (Ki class)
property: Ki

[[record]]
compound = "O=C(NC(COc1ccccc1)c1ccc2c(c1)OCCO2)c1cc(-c2[nH]ncc2-c2cccc(Br)c2)c[nH]1 (centres unmarked) [II-290]"
result = "1 to 5 µM"

[[record]]
compound = "Cc1cccc(-c2cn[nH]c2-c2c[nH]c(C(=O)NCc3ccccc3)c2)c1 [II-90]"
result = "< 1 µM"

[[record]]
compound = "CC1CCN(C(=O)c2cc(-c3[nH]ncc3-c3ccccc3)c[nH]2)CC1 [II-166]"
result = "> 5 µM"

[[record]]
compound = "COc1cccc(-c2cn[nH]c2-c2c[nH]c(C(=O)N3CCOCC3)c2)c1 [II-27]"
result = "< 1 µM"

[[record]]
compound = "O=C(NCc1ccccc1)c1cc(-c2[nH]ncc2-c2ccc(F)cc2)c[nH]1 [II-111]"
result = "< 1 µM"

[[record]]
compound = "Nc1ccc(CNC(=O)c2cc(-c3[nH]ncc3-c3cccc(Br)c3)c[nH]2)cc1 [II-109]"
result = "< 1 µM"

[[record]]
compound = "CCOC(=O)c1cc(-c2[nH]ncc2-c2ccc([N+](=O)[O-])cc2)c[nH]1 [II-165]"
result = "> 5 µM"

[[record]]
compound = "O=C(NCc1cccc(C(F)(F)F)c1)c1cc(-c2[nH]ncc2-c2cccc(Br)c2)c[nH]1 [II-47]"
result = "< 1 µM"

